target: Small conductance calcium-activated potassium channel protein 3 (Homo sapiens, UniProt Q9UGI6); assay: Inhibition of human SK3 channel by inside-out patch clamp technique
Sequence (Q9UGI6 whole entry): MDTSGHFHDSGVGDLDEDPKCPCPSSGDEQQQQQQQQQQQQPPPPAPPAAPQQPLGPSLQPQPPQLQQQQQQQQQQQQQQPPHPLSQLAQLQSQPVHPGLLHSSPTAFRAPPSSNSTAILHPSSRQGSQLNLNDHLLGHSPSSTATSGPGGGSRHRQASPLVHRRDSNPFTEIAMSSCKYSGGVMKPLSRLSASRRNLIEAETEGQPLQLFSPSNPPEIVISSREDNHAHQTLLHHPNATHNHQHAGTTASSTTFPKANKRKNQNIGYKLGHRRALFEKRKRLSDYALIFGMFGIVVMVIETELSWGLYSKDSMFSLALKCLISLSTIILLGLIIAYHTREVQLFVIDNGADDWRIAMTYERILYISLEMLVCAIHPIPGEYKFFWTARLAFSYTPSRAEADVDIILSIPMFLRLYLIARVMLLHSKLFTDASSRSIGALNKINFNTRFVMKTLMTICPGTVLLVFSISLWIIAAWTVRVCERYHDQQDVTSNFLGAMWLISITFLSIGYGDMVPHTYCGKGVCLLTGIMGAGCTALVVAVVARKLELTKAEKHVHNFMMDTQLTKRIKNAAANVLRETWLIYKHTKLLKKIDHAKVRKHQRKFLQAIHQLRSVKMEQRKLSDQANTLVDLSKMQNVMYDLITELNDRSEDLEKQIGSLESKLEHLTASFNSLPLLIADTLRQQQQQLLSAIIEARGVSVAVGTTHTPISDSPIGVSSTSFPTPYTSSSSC
OUTCOME MEASURE: pKd
pKd here: minus log base 10 of the concentration, concentration in moles per litre.

## Task Which pKd reading was recorded for the molecule Clc1cc2c(cc1Cl)C(Nc1nc3ccccc3[nH]1)CCC2 (stereo unspecified) ?
## Result 7.22

====

target: Small conductance calcium-activated potassium channel protein 3 (Homo sapiens, UniProt Q9UGI6); assay: Inhibition of wild type human SK3 channel expressed in HEK293 cells assessed as Ca2+ sensitivity by inside-out patch clamp technique
OUTCOME MEASURE: pEC50
pEC50 here: minus log base 10 of the concentration, concentration in moles per litre.

## Task Which pEC50 reading was recorded for the molecule Clc1cc2c(cc1Cl)C(Nc1nc3ccccc3[nH]1)CCC2 (configuration not stated) ?
## Result 5.74

## Task Which pEC50 reading was recorded for the molecule c1ccc2c(c1)CCC[C@H]2Nc1nc2ccccc2[nH]1 ?
## Result 6.40
